Where do the numbers come from? From patent US20250313535A1.

Recorded IC50 for the following molecules
targetDesc: α4β1 integrin (Homo sapiens (Human), UniProt P05556+P13612)
Sequence (P13612 34-1032): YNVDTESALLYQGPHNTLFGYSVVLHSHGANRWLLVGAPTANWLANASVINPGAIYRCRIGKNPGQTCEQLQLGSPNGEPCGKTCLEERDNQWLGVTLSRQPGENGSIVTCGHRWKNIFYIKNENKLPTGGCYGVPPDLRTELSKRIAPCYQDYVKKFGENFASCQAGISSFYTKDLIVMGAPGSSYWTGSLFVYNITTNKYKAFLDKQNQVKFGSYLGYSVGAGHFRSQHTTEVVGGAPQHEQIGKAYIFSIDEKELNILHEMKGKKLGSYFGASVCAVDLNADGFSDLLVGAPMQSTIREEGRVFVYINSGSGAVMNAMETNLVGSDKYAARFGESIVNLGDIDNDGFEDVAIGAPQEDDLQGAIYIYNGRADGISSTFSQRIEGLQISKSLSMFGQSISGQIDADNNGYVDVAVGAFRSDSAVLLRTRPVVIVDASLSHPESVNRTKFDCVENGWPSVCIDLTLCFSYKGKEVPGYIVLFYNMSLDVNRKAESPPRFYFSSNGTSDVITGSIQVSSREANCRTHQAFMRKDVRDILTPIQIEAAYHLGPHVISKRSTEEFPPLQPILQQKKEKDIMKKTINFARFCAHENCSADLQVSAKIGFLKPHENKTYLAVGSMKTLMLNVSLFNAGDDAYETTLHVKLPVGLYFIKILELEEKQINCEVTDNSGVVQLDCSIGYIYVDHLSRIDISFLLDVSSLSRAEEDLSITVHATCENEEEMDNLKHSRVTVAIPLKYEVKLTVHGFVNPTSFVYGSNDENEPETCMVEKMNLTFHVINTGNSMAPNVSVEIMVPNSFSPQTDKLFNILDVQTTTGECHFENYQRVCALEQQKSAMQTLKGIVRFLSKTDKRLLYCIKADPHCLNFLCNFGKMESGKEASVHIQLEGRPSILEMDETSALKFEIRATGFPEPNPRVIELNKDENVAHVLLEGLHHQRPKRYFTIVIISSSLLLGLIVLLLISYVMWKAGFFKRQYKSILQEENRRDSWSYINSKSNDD
Sequence (P05556 21-798): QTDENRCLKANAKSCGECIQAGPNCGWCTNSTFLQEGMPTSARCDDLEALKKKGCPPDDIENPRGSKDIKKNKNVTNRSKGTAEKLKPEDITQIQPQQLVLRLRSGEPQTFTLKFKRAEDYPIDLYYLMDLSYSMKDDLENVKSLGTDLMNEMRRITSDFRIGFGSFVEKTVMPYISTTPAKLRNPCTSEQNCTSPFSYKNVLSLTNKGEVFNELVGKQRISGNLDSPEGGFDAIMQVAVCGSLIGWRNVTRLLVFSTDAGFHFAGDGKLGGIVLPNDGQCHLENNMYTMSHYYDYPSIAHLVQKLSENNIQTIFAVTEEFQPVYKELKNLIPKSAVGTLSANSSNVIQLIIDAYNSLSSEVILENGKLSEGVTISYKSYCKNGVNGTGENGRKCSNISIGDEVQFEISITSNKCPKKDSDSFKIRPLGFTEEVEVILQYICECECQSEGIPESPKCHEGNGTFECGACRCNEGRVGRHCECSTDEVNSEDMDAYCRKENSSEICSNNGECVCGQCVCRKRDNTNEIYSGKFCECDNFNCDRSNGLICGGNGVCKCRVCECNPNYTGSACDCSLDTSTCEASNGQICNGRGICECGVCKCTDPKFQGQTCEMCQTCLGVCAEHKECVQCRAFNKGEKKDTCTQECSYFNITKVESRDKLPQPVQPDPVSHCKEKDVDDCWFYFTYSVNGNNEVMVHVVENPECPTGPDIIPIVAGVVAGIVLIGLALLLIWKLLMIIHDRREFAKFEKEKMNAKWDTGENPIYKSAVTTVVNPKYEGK
methodSummary: Integrin Adhesion Assay: Protocol 5 (VCAM-coated plate, RPMI-8866 cells with stable LOF mutation of the ITGB7 gene)
Format: cell-based
reportedConditions: RPMI-8866 cells with stable LOF mutation of the ITGB7 gene; read-out: Mean IC50 α4β1 KO^b

smilescode=Cn1c(=O)c(-c2cccc3c(C[C@H](NC(=O)C4(C)CCC5(CCOCC5)CC4)C(=O)O)cccc23)c(C(F)(F)F)c2ccccc21 targetdesc="α4β1 integrin (Homo sapiens (Human), UniProt P05556+P13612)" experimentalresult="> 1000 nM"
smilescode=Cc1cccc(F)c1C(=O)N[C@@H](Cc1cccc2c(-c3c(C(F)(F)F)ccn(C)c3=O)cccc12)C(=O)O targetdesc="α4β1 integrin (Homo sapiens (Human), UniProt P05556+P13612)" experimentalresult="> 1000 nM"

// next item, IC50 requested
// field: IC50; key: COc1ccc(CN2CCCC(F)(F)CC2)c(OC)c1-c1cccc2c(C[C@H](NC(=O)c3c(C)cccc3F)C(=O)O)cccc12 ; value = 100 to 1000 nM

====

targetDesc: α4β7 integrin (Homo sapiens (Human), UniProt P13612+P26010)
Sequence (P13612 34-1032): as the sequence (P13612 34-1032) above
Sequence (P26010 20-798): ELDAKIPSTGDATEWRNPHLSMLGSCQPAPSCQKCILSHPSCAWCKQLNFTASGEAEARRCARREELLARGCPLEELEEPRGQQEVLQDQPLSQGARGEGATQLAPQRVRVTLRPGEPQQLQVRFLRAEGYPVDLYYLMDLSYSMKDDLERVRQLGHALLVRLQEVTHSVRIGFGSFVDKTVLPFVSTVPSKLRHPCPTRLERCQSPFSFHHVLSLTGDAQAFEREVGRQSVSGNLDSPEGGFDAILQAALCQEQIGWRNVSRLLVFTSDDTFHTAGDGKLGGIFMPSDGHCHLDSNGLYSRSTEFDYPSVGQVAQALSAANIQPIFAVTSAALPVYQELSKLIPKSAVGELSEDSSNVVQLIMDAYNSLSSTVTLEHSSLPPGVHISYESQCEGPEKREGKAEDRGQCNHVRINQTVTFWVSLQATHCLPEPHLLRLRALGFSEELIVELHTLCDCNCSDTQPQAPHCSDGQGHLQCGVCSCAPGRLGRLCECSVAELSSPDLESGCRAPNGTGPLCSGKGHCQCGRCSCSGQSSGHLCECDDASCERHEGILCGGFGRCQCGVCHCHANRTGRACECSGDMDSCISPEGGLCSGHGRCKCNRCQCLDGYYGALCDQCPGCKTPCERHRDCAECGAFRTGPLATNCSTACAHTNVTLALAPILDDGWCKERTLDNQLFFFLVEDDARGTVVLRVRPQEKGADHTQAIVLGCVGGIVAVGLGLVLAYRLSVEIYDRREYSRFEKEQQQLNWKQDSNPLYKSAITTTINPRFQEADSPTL
methodSummary: Integrin Adhesion Assay: Protocol 4 (MAdCAM-coated plate, RPMI-8866 cells with stable LOF mutation of the ITGB1 gene)
Assay type: cell-based
reportedConditions: Protocol 4; RPMI-8866 cells with LOF mutation of ITGB1, MAdCAM; read-out: Mean IC50 α4β7 KO
pIC50: −log10 of the molar value.
measuredParameter: pIC50

smilescode=COc1ccc(CN2CCC(F)(F)CC2)c(C(F)(F)F)c1-c1cccc2c(C[C@H](NC(=O)C3(C(F)(F)F)CCN(CC(F)(F)F)CC3)C(=O)O)cccc12 measuredparameter=pIC50 experimentalresult="6.00 to 7.00"
smilescode=CN1CCC(c2cnc(-c3cccc4c(C[C@H](NC(=O)C5(C(F)(F)F)CCN(CC(F)(F)F)CC5)C(=O)O)cccc34)c(C(F)(F)F)c2)CC1 measuredparameter=pIC50 experimentalresult="> 8.00"
smilescode=O=C(O)[C@H](Cc1cccc2c(-c3nccc4cccc(CCN5CCCCC5)c34)cccc12)NC(=O)C1(C(F)(F)F)CCN(CC(F)(F)F)CC1 measuredparameter=pIC50 experimentalresult="> 8.00"
smilescode=COc1cc(CN2CCCCC2)cc(Cl)c1-c1cccc2c(C[C@H](NC(=O)C3(C(F)(F)F)CCN(CC(F)(F)F)CC3)C(=O)O)cccc12 measuredparameter=pIC50 experimentalresult="> 8.00"
smilescode=CC[C@@H]1CCCN1Cc1cnc(-c2cccc3c(C[C@H](NC(=O)C4(C(F)(F)F)CCN(CC(F)F)CC4)C(=O)O)cccc23)c2ccccc12 measuredparameter=pIC50 experimentalresult="> 8.00"

α4β7 integrin (Homo sapiens (Human), UniProt P13612+P26010) pIC50 of COc1ccc(CN2CC(c3ccccc3)C2)c(OC)c1-c1cccc2c(C[C@H](NC(=O)C3(C(F)(F)F)CCN(CC(F)(F)F)CC3)C(=O)O)cccc12 is 7.00 to 8.00

====

targetDesc: α4β7 integrin (Homo sapiens (Human), UniProt P13612+P26010)
methodSummary: Integrin Adhesion Assay: Protocol 4 (MAdCAM-coated plate, RPMI-8866 cells with stable LOF mutation of the ITGB1 gene)
Format: cell-based
reportedConditions: Protocol 4; RPMI-8866 cells with LOF mutation of ITGB1, MAdCAM; read-out: Mean IC50 α4β7 KO
pIC50: −log10 of the molar value.
Recorded pIC50 for the following molecules

Check out these entries, answers already filled in.
molecule="COc1cccc(CCN2CCCC(C)(C)C2)c1-c1cccc2c(C[C@H](NC(=O)C3(C(F)(F)F)CCN(CC(F)F)CC3)C(=O)O)cccc12 [Compound 984]" experimentalresult="> 8.00"
molecule="COC(=O)[C@H](Cc1cccc2c(-c3c(OC)ccc(CN4CCC(C)C(F)(F)CC4)c3OC)cccc12)NC(=O)C1(C(F)(F)F)CCN(CC(F)(F)F)CC1 (stereo partly drawn) [Compound 779]" experimentalresult="> 8.00"

// field: pIC50; key: O=C(O)[C@H](Cc1cccc2c(-c3ncc(CN4CCCC(F)(F)CC4)c4ccccc34)cccc12)NC(=O)C1(C(F)(F)F)CCN(CC(F)(F)F)CC1 [Compound 869] ; value = 7.00 to 8.00

// field: pIC50; key: O=C(O)[C@H](Cc1cccc2c(-c3nccc4ccc(CCCN5CCC6(CC5)CC6)cc34)cccc12)NC(=O)C1(C(F)(F)F)CCN(C2COC2)CC1 [Compound 773] ; value = > 8.00

// field: pIC50; key: COc1cccc(OCCN2CCCCC2)c1-c1cccc2c(C[C@H](NC(=O)c3c(C)cccc3F)C(=O)O)cccc12 [Compound 999] ; value = > 8.00

// field: pIC50; key: Cc1cccc(F)c1C(=O)N[C@@H](Cc1cccc2c(-c3c(C(F)(F)F)c4cc(CN5CCCCC5)ccc4n(C)c3=O)cccc12)C(=O)O [Compound 1030] ; value = > 8.00
